- Tested on: EGFR (human), P00533 [G719S]
- Method Notes: KINOMEscan competition binding
- Condition Info: compound 10.0 µM

{"Structure Smiles": "C[C@@H](Oc1cc(-n2cnc3ccc(CN4CCN(C)CC4)cc32)sc1C(N)=O)c1ccccc1C(F)(F)F", "Assayed Target": "EGFR (human), P00533 [G719S]", "kinase still bound, per cent of control": "100%"}
{"Structure Smiles": "CCN1CCN(Cc2ccc(Nc3ncc4c(n3)N(C)c3ccccc3C(=O)N4C)cc2C(F)(F)F)CC1", "Assayed Target": "EGFR (human), P00533 [G719S]", "kinase still bound, per cent of control": "99%"}
{"Structure Smiles": "Cc1cn(-c2cc(C(=O)Nc3ccc(C)c(NC(=O)c4ccno4)c3)cc(C(F)(F)F)c2)cn1", "Assayed Target": "EGFR (human), P00533 [G719S]", "kinase still bound, per cent of control": "100%"}
